Biological target: T1, APC1434-AA
T1 chain: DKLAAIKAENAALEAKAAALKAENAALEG
Assay: two-hybrid library CCmax;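 note: natural log of median RNA to DNA barcode read ratio; higher means stronger binding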
Conditions: mean of both orientations
RECORDED_ENDPOINT: interaction score
One number for each entry.

Some solved entries appear below for comparison.
| BINDER | interaction score |
| --- | --- |
| DKIAALEAEIAALKAENAALKAKNAALEG [4H2143-AA] | -1.23 |
| DEIAALKAENAALKAENAALKAKIAALEG [4H733-AA] | -1.75 |
| DKIAALEAKNAALEAENAALKAEIAALKG [4H2458-AA] | -1.22 |
| DKIAALEAKNAALEAEIAALKAKNAALEG [4H2447-AA] | -1.56 |
| DKIAALEAENAALKAKNAALEAEIAALKG [4H2290-AA] | -1.4 |
| DEIAALKAKIAALEAKIAALEAKNAALEG [4H807-AA] | -1.82 |

Value sought for every listed binder: interaction score.
1. DENAALKAKIAALEAKNAALEAKIAALEG [4H1845-AA]
2. DKIAALEAEIAALKAKIAALEAENAALKG [4H2148-AA]
3. DEIAALKAENAALKAEIAALKAENAALKG [4H716-AA]
4. DKLAAIKAELAAIEAKLAAIKAKNAALKG [APC1015-AA]

[-1.56, -1.39, -1.53, -1.58]

Field request: interaction score | item: DKNAALEAKIAALEAEIAALEAEIAALKG [4H3330-AA]
-1.62
